target-entity: D(2) dopamine receptor (Rattus norvegicus)
Sequence (P61169 whole entry): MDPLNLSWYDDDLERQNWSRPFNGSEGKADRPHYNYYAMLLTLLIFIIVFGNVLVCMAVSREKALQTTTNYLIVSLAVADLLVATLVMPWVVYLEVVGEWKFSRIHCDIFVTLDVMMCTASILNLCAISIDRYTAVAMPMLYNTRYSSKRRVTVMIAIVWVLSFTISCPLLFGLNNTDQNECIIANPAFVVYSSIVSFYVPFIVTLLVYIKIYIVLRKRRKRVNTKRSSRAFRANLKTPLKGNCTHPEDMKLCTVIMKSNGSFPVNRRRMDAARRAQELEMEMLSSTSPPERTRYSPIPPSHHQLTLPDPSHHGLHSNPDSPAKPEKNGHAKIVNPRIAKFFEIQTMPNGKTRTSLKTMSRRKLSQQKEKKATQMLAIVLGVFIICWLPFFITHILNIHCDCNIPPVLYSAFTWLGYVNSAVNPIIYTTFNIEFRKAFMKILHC
assay-protocol: Compound was evaluated for its ability to displace [3H]raclopride from Dopamine receptor D2 in rat striatal homogenates
pKi: −log10 of the molar value.
measured-property: pKi

Ask: Param request: pKi | system D(2) dopamine receptor (Rattus norvegicus) | item CCCN(CCC)C1Cc2cccc3nc(C)n(c23)C1 (stereo unspecified)
Reply: < 6.00

---

target-entity: D(2) dopamine receptor (Rattus norvegicus)
assay-protocol: Ability to displace [3H]raclopride from dopamine receptor D2 in rat striatal homogenates.
Consider the following molecules; for each one, report its log10 of Ki.
Base-10 log of Ki, unit nM.

Ask: Param request: log10 of Ki | system D(2) dopamine receptor (Rattus norvegicus) | item CCCN(CCC)C1Cc2cccc3ccc(=O)n(c23)C1 (stereo not drawn)
Reply: 2.50

Ask: Param request: log10 of Ki | system D(2) dopamine receptor (Rattus norvegicus) | item CCCN(CCC)C1Cc2cccc3c2N(CC(=O)N3)C1.Cl (stereo not drawn)
Reply: 1.48

Ask: Param request: log10 of Ki | system D(2) dopamine receptor (Rattus norvegicus) | item CCCN(Cc1ccccc1)C1Cc2cccc3[nH]c(=O)n(c23)C1 (stereo not drawn)
Reply: 3.28

Ask: Param request: log10 of Ki | system D(2) dopamine receptor (Rattus norvegicus) | item Oc1nc2cccc3c2n1CC(N(CC1CC1)CC1CC1)C3 (stereo not drawn)
Reply: 3.89

Ask: Param request: log10 of Ki | system D(2) dopamine receptor (Rattus norvegicus) | item Oc1nc2cccc3c2n1CC(NCC1CC1)C3 (stereo not drawn)
Reply: 3.60

Ask: Param request: log10 of Ki | system D(2) dopamine receptor (Rattus norvegicus) | item CCCN(CCC)C1Cc2cccc3nc(S)n(c23)C1 (stereo not drawn)
Reply: 1.60

Ask: Param request: log10 of Ki | system D(2) dopamine receptor (Rattus norvegicus) | item CCCCN(CCC)C1Cc2cccc3nc(O)n(c23)C1 (stereo not drawn)
Reply: 2.22

Ask: Param request: log10 of Ki | system D(2) dopamine receptor (Rattus norvegicus) | item CCCN(CCC)C1Cc2cccc3oc(=O)n(c23)C1 (stereo not drawn)
Reply: 2.95
